These data points were gathered from patent US9783509B2.

Listed compounds paired with reported efficacy (spider mites killed)
test system: greenhouse red spider mite (Tetranychus urticae); test: Tetranychus urticae spray test, OP-resistant (bean leaf discs); format: in vivo; details: application rate 500 g/ha, after 6 days
Endpoint label: efficacy (spider mites killed) (%)

1. Cc1cc(F)c(-n2ccc(=O)n(CC(F)(F)F)c2=O)cc1SCC(F)(F)F = 90
2. Cc1cc(C)c(-n2ccc(=O)n(CC(F)(F)F)c2=O)cc1SCC(F)(F)F = 100
3. Cc1cc(F)c(-n2ccc(=O)n(CC#N)c2=O)cc1[S+]([O-])CC(F)(F)F (racemic) = 90
4. Cc1ccc(-n2ccc(=O)[nH]c2=O)cc1[S+]([O-])CC(F)(F)F (centres unmarked) = 100
5. Cc1cc(F)c(-n2ccc(=O)n(CC3CC3)c2=O)cc1SCC(F)(F)F = 90
6. Cc1cc(C)c([S+]([O-])CC(F)(F)F)cc1-n1ccc(=O)n(CC(F)(F)F)c1=O (centres unmarked) = 100
7. O=c1cnn(-c2cc([S+]([O-])CC(F)(F)F)c(Cl)cc2Cl)c(=O)n1CC(F)(F)F (racemic) = 100
8. Cc1cc(C)c([S+]([O-])CC(F)(F)F)cc1-n1ncc(=O)n(CC2CC2)c1=O (racemic) = 100

----------
system: greenhouse red spider mite (Tetranychus urticae); assay: Tetranychus urticae spray test, OP-resistant (bean leaf discs); format: in vivo; conditions: application rate 500 g/ha, after 6 days
Endpoint label: efficacy (spider mites killed)

1) COCn1c(=O)ccn(-c2cc([S+]([O-])CC(F)(F)F)c(C)cc2F)c1=O (stereo not drawn) = 90%
2) Cc1ccc(-n2ncc(=O)n(C)c2=O)cc1SCC(F)(F)F = 100%
3) Cc1cc(C)c(-n2ncc(=O)n(C(C)C)c2=O)cc1SCC(F)(F)F = 100%
4) Cc1ccc(-n2ccc(=O)n(CC(F)(F)F)c2=O)cc1SCC(F)(F)F = 100%
5) Cn1c(=O)cnn(-c2cc(SCC(F)(F)F)c(Cl)cc2Cl)c1=O = 100%
6) Cc1ccc(-n2ncc(=O)n(C)c2=O)cc1[S+]([O-])CC(F)(F)F (racemic) = 100%
7) Cc1cc(C)c([S+]([O-])CC(F)(F)F)cc1-n1ccc(=O)[nH]c1=O (stereo not drawn) = 100%
8) Cc1cc(F)c(-n2ncc(=O)n(CC#N)c2=O)cc1SCC(F)(F)F = 100%
9) CCn1c(=O)cnn(-c2cc(SCC(F)(F)F)c(C)cc2C)c1=O = 100%
10) Cc1cc(F)c(-n2ccc(=O)n(CC3CC3)c2=O)cc1[S+]([O-])CC(F)(F)F (racemic) = 90%
11) Cc1ccc(-n2ccc(=O)n(CC3CC3)c2=O)cc1SCC(F)(F)F = 100%
12) Cc1cc(F)c(-n2ncc(=O)n(CC(F)(F)F)c2=O)cc1[S+]([O-])CC(F)(F)F (racemic) = 100%
13) Cc1cc(F)c(-n2ncc(=O)n(Cc3ccccc3)c2=O)cc1SCC(F)(F)F = 100%
14) Cc1ccc(-n2ccc(=O)n(CC#N)c2=O)cc1SCC(F)(F)F = 100%
15) Cc1cc(F)c(-n2ccc(=O)n(CC#N)c2=O)cc1SCC(F)(F)F = 90%
16) CCCn1c(=O)ccn(-c2cc([S+]([O-])CC(F)(F)F)c(C)cc2F)c1=O (stereo not drawn) = 90%
17) Cc1cc(C)c(-n2ccc(=O)[nH]c2=O)cc1SCC(F)(F)F = 100%
18) Cc1cc(C)c(-n2ncc(=O)n(C)c2=O)cc1SCC(F)(F)F = 100%

----------
Listed compounds paired with reported LogP[b]
assay: log P by reversed-phase HPLC analogously to OECD Guideline 117; assay type: physicochemical; conditions: [b] neutral range, pH 7.8, ammonium hydrogencarbonate/acetonitrile
Endpoint label: LogP[b]

1. Cc1ccc(-n2ccc(=O)n(CC#N)c2=O)cc1[S+]([O-])CC(F)(F)F (stereo not shown) = 1.62
2. CCn1c(=O)ccn(-c2ccc(C)c([S+]([O-])CC(F)(F)F)c2)c1=O (stereo not shown) = 1.77
3. C#CCn1c(=O)ccn(-c2cc([S+]([O-])CC(F)(F)F)c(C)cc2F)c1=O (stereo not shown) = 1.92
4. Cc1cc(C)c(-n2ncc(=O)n(C(C)C)c2=O)cc1SCC(F)(F)F = 3.81
5. C=CCn1c(=O)ccn(-c2cc([S+]([O-])CC(F)(F)F)c(C)cc2F)c1=O (racemic) = 2.08
6. Cn1c(=O)cnn(-c2ccc(Cl)c(SCC(F)(F)F)c2)c1=O [compound 32] = 2.16
7. O=c1cnn(-c2cc(SCC(F)(F)F)c(Cl)cc2Cl)c(=O)[nH]1 = 1.4
8. CCn1c(=O)cnn(-c2cc([S+]([O-])CC(F)(F)F)c(C)cc2C)c1=O (racemic) = 2.27
9. Cc1ccc(-n2ccc(=O)n(CC#N)c2=O)cc1SCC(F)(F)F = 2.62
10. Cc1cc(C)c([S+]([O-])CC(F)(F)F)cc1-n1ccc(=O)n(C)c1=O (stereo not shown) = 1.7

----------
tested on: greenhouse red spider mite (Tetranychus urticae); test: Tetranychus urticae spray test, OP-resistant (bean leaf discs); type: in vivo; settings: application rate 500 g/ha, after 6 days
Listed compounds paired with reported efficacy (spider mites killed)
Endpoint label: efficacy (spider mites killed)

1) Cc1cc(F)c(-n2ccc(=O)n(C(C)C)c2=O)cc1[S+]([O-])CC(F)(F)F (racemic) = 90%
2) Cc1ccc(-n2ccc(=O)n(C(C)C)c2=O)cc1SCC(F)(F)F = 100%
3) Cc1ccc(-n2ccc(=O)n(CC#N)c2=O)cc1[S+]([O-])CC(F)(F)F (stereo not shown) = 90%
4) CCn1c(=O)ccn(-c2ccc(C)c([S+]([O-])CC(F)(F)F)c2)c1=O (stereo not shown) = 100%

----------
assay: log P by reversed-phase HPLC analogously to OECD Guideline 117; type: physicochemical; settings: [a] acidic range, pH 2.7, formic acid (or trifluoroacetic acid)/acetonitrile
Label yes (1) when LogP[a] is at or above 3; anything below gets no (0).

1) Cc1cc(F)c(-n2ncc(=O)n(Cc3ccccc3)c2=O)cc1SCC(F)(F)F [compound 42] = yes (1)
2) O=c1cnn(-c2cc([S+]([O-])CC(F)(F)F)c(Cl)cc2Cl)c(=O)[nH]1 (racemic) [compound 15] = no (0)
3) Cc1cc(F)c(-n2ccc(=O)n(C(C)C)c2=O)cc1[S+]([O-])CC(F)(F)F (racemic) [compound 63] = no (0)
4) Cc1cc(F)c(-n2ncc(=O)n(CC(F)(F)F)c2=O)cc1[S+]([O-])CC(F)(F)F (single isomer, unassigned) [compound 51] = no (0)
5) Cc1cc(F)c(-n2ncc(=O)n(CC3CC3)c2=O)cc1SCC(F)(F)F [compound 25] = yes (1)
6) COCn1c(=O)ccn(-c2cc(SCC(F)(F)F)c(C)cc2F)c1=O [compound 80] = no (0)

----------
tested on: southern root-knot nematode (Meloidogyne incognita); assay: Meloidogyne incognita test (sand, lettuce, acetone solvent, 14 days); assay type: in vivo; details: application rate 20 ppm, after 14 days
Endpoint label: nematicidal efficacy (formation of galls) (%)

1) C=CCn1c(=O)ccn(-c2cc([S+]([O-])CC(F)(F)F)c(C)cc2F)c1=O (racemic) [compound 65] = 100
2) Cc1cc(C)c([S+]([O-])CC(F)(F)F)cc1-n1ccc(=O)n(CC(F)(F)F)c1=O (stereo not drawn) [compound 95] = 100
3) CCn1c(=O)ccn(-c2ccc(C)c([S+]([O-])CC(F)(F)F)c2)c1=O (stereo not drawn) [compound 98] = 100
4) Cc1cc(F)c(-n2ccc(=O)n(C(C)C)c2=O)cc1[S+]([O-])CC(F)(F)F (racemic) [compound 63] = 100
5) Cc1cc(F)c(-n2ncc(=O)n(CC(F)(F)F)c2=O)cc1SCC(F)(F)F [compound 10] = 100
6) Cc1cc(F)c(-n2ncc(=O)n(CC3CC3)c2=O)cc1[S+]([O-])CC(F)(F)F (racemic) [compound 27] = 100
7) O=c1cnn(-c2cc(SCC(F)(F)F)c(Cl)cc2Cl)c(=O)n1CC(F)(F)F [compound 12] = 90
8) Cc1ccc(-n2ccc(=O)n(CC#N)c2=O)cc1SCC(F)(F)F [compound 85] = 90
9) CCn1c(=O)ccn(-c2cc([S+]([O-])CC(F)(F)F)c(C)cc2C)c1=O (stereo not drawn) [compound 97] = 90
10) Cc1cc(F)c(-n2ncc(=O)n(CC3CC3)c2=O)cc1SCC(F)(F)F [compound 25] = 100
11) C#CCn1c(=O)ccn(-c2cc(SCC(F)(F)F)c(C)cc2F)c1=O [compound 79] = 100
12) Cc1cc(F)c(-n2ccc(=O)n(CC(F)(F)F)c2=O)cc1SCC(F)(F)F [compound 72] = 100
13) CCn1c(=O)cnn(-c2cc(SCC(F)(F)F)c(C)cc2F)c1=O [compound 19] = 90
14) Cn1c(=O)cnn(-c2cc(SCC(F)(F)F)c(Cl)cc2Cl)c1=O [compound 14] = 90
15) Cc1cc(F)c(-n2ncc(=O)n(C(C)C)c2=O)cc1[S+]([O-])CC(F)(F)F (racemic) [compound 30] = 100
16) Cc1cc(F)c(-n2ccc(=O)n(CC3CC3)c2=O)cc1SCC(F)(F)F [compound 74] = 100
17) Cc1cc(F)c(-n2ncc(=O)n(CC(F)(F)F)c2=O)cc1[S+]([O-])CC(F)(F)F (racemic) [compound 9] = 100
18) Cc1cc(F)c(-n2ccc(=O)n(CC3CC3)c2=O)cc1[S+]([O-])CC(F)(F)F (racemic) [compound 62] = 100
19) C#CCn1c(=O)ccn(-c2cc([S+]([O-])CC(F)(F)F)c(C)cc2F)c1=O (stereo not drawn) [compound 67] = 100
20) Cc1cc(F)c(-n2ccc(=O)n(CC(F)(F)F)c2=O)cc1[S+]([O-])CC(F)(F)F (racemic) [compound 60] = 100
21) Cc1cc(F)c(-n2ccc(=O)n(CC(C)C)c2=O)cc1[S+]([O-])CC(F)(F)F (stereo not drawn) [compound 69] = 100
